TEST_TARGET: human F508del-CFTR (Homo sapiens, UniProt P13569, DEL508-508)
Sequence (P13569 with tags, fused parts or gaps DEL508-508): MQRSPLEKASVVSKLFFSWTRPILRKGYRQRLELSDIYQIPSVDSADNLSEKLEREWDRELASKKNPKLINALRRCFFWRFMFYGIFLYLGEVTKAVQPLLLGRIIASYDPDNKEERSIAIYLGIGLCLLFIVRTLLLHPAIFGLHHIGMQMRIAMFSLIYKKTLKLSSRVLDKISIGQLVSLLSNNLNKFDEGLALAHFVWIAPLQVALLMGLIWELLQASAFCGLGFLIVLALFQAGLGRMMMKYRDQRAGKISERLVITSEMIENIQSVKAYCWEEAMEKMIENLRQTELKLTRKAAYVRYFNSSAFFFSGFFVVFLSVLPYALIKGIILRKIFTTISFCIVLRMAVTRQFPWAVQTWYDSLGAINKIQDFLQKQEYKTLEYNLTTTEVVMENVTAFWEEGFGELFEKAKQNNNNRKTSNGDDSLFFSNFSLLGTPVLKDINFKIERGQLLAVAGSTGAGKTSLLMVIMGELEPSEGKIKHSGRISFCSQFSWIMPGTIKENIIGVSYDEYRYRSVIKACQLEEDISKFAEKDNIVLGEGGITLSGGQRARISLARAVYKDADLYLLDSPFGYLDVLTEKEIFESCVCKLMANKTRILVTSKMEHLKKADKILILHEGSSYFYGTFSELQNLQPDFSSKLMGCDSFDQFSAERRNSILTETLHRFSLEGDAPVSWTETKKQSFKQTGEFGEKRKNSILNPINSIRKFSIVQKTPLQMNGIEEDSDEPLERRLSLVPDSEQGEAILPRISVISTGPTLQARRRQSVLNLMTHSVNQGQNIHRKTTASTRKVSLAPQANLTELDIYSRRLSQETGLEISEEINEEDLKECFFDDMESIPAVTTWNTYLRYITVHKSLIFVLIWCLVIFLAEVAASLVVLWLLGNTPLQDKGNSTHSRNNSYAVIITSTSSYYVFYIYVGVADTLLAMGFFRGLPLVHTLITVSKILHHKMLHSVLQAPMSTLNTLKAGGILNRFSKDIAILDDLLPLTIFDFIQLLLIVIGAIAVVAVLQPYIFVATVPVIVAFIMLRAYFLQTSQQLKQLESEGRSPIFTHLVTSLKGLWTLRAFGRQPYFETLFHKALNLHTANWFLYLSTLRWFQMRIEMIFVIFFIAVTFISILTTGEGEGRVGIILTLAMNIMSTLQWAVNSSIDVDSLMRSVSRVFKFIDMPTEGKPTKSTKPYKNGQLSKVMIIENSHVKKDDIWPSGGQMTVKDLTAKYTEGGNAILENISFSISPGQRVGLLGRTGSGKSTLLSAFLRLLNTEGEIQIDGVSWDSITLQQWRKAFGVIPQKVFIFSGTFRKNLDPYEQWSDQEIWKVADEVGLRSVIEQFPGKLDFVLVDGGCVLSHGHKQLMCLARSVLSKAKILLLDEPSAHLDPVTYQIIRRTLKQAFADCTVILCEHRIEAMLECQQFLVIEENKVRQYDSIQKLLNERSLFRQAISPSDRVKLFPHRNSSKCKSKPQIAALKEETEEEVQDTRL
PROCEDURE_TEXT: F508del-CFTR cell surface expression (corrector activity), DiscoveRx ß-galactosidase complementation chemiluminescence assay in recombinant U2OS cell line;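 note: U2OS cells co-expressing ProLink-tagged F508del-CFTR and a membrane-anchored enzyme acceptor, where more surface CFTR restores β-galactosidase activity measured by chemiluminescence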
CONDITION_DETAILS: U2OS, in relation to Emax of corrector lumacaftor (=100%); arithmetic mean values
MEASURE: Emax (%)

[[record]]
compound = "Cc1cc(CCNC(=O)[C@@H]2CC(=O)N(C)[C@@H](CC(C)C)C(=O)N3CCN(C4CC4)C[C@H]3C(=O)N[C@H](Cc3ccccc3)COc3cnc4ccccc4c3C(=O)N2)on1"
measure = "Emax"
value = 179

[[record]]
compound = "[2H]C([2H])([2H])Oc1nc(C)cc2c1C(=O)N[C@H](C(=O)NCCc1cc(C3CC3)no1)CC(=O)N(C)[C@@H](CC(C)C)C(=O)N1CCCC[C@@H]1C(=O)N[C@H](Cc1ccccc1)CO2"
measure = "Emax"
value = 325

[[record]]
compound = "COc1cccc(CCNC(=O)[C@@H]2CC(=O)N(C)[C@@H](CC(C)C)C(=O)N3CC[C@@H](C3)C(=O)N[C@H](Cc3ccccc3)COc3cnc4ccc(F)cc4c3C(=O)N2)c1"
measure = "Emax"
value = 294

[[record]]
compound = "COc1cc(CCNC(=O)[C@@H]2CC(=O)N(C)[C@@H](CC(C)C)C(=O)N3CCN(C(C)C)C[C@@H]3C(=O)N[C@H](Cc3ccccc3)COc3ccc4ccccc4c3C(=O)N2)cc(OC)c1"
measure = "Emax"
value = 309

[[record]]
compound = "CC(C)C[C@H]1C(=O)N2CCCC[C@@H]2C(=O)N[C@H](Cc2ccccc2)COc2ccncc2C(=O)N[C@H](C(=O)NCCc2ccc3c(c2)OCCO3)CC(=O)N1C"
measure = "Emax"
value = 171

[[record]]
compound = "Cc1nc2ccc3c(c2o1)C(=O)N[C@H](C(=O)NCCc1cccc([C@H](C)O)c1)CC(=O)N(C)[C@@H](CC(C)C)C(=O)N(CCC1CCCCC1)CC(=O)N[C@H](Cc1ccccc1)CO3 (racemic)"
measure = "Emax"
value = 232

[[record]]
compound = "CC(C)C[C@H]1C(=O)N(C)C2(CC2)C(=O)N[C@H](Cc2ccccc2)COc2cnc3ccccc3c2C(=O)N[C@H](C(=O)NCCc2ccc(-c3ncccn3)cc2)CC(=O)N1C"
measure = "Emax"
value = 317

[[record]]
compound = "COc1cccc(CCNC(=O)[C@@H]2CC(=O)N(C)[C@@H](CC(C)C)C(=O)N3CCN(S(=O)(=O)c4cncc(OC)c4)C[C@@H]3C(=O)N[C@H](Cc3ccccc3)COc3ccc4ccccc4c3C(=O)N2)c1"
measure = "Emax"
value = 239

[[record]]
compound = "COc1cc2c(cn1)OC[C@@H](Cc1ccccc1)NC(=O)C1(CC1)N(C)C(=O)[C@H](CC(C)C)N(C)C(=O)C[C@@H](C(=O)NCCc1cc(C3CC3)no1)NC2=O"
measure = "Emax"
value = 159

[[record]]
compound = "COc1cccc(CCNC(=O)[C@@H]2CC(=O)N(C)[C@@H](CC(C)C)C(=O)N(C)C3(CC3)C(=O)N[C@H](Cc3ccccc3)COc3ccc4cc(C)oc4c3C(=O)N2)c1"
measure = "Emax"
value = 317

[[record]]
compound = "CC(C)C[C@H]1C(=O)N2CCCC[C@@H]2C(=O)N[C@H](Cc2ccccc2)COc2ccc3ncccc3c2C(=O)N[C@H](C(=O)NCCc2cc(C3CC3)on2)CC(=O)N1C"
measure = "Emax"
value = 298

[[record]]
compound = "CC(C)C[C@H]1C(=O)N2CCOC[C@@H]2C(=O)N[C@H](Cc2ccccc2)COc2cnc3ccc(F)cc3c2C(=O)N[C@H](C(=O)NCCc2cc(C3CC3)no2)CC(=O)N1C"
measure = "Emax"
value = 270

[[record]]
compound = "COc1nc(C)cc2c1C(=O)N[C@H](C(=O)NCCc1cc(C)no1)CC(=O)N(C)[C@@H](CC(C)C)C(=O)N1CCC3(CC3)C[C@@H]1C(=O)N[C@H](Cc1ccccc1)CO2"
measure = "Emax"
value = 262

[[record]]
compound = "Cc1cc2ccc3c(c2o1)C(=O)N[C@H](C(=O)NCCc1noc(C2CC2)n1)CC(=O)N(C)[C@@H](CC(C)C)C(=O)N(C)CC(=O)N[C@H](Cc1ccccc1)CO3"
measure = "Emax"
value = 215

[[record]]
compound = "[2H]C([2H])([2H])Oc1nc(C)cc2c1C(=O)N[C@H](C(=O)NCCc1cc(OC)no1)CC(=O)N(C)[C@@H](CC(C)C)C(=O)N1CCCC[C@@H]1C(=O)N[C@H](Cc1ccccc1)CO2"
measure = "Emax"
value = 303

[[record]]
compound = "CC(C)C[C@H]1C(=O)N(C)[C@H](C)C(=O)N[C@H](Cc2ccccc2)COc2ccc3ncc(F)cc3c2C(=O)N[C@H](C(=O)NCCn2ncc(C3CC3)n2)CC(=O)N1C"
measure = "Emax"
value = 323

[[record]]
compound = "CC[C@@H]1C(=O)N[C@H](Cc2ccccc2)COc2cc(C)nc(OC)c2C(=O)N[C@H](C(=O)NCCc2cc(C)no2)CC(=O)N(C)[C@@H](CC(C)C)C(=O)N1C"
measure = "Emax"
value = 339

[[record]]
compound = "COc1nc(C)cc2c1C(=O)N[C@H](C(=O)NCCc1cc(C3CC3)on1)CC(=O)N(C)[C@@H](CC(C)C)C(=O)N1CCCC[C@@H]1C(=O)N[C@H](Cc1ccccc1)CO2"
measure = "Emax"
value = 254

[[record]]
compound = "COc1nccc2c1C(=O)N[C@H](C(=O)NCCc1cc(C3CC3)no1)CC(=O)N(C)[C@@H](CC(C)C)C(=O)N1CC[C@H](c3ccccc3)C[C@H]1C(=O)N[C@H](Cc1ccccc1)CO2"
measure = "Emax"
value = 167

